- target or system: binding of His-XIAP(BIR2)-avi fusion protein to GST-RIPK2 fusion protein (RIPK2/XIAP) (Homo sapiens)
- Construct: made in house; host or cells: baculovirus infected Sf9 cells
- Sequence (O43353 1-310 limits assumed): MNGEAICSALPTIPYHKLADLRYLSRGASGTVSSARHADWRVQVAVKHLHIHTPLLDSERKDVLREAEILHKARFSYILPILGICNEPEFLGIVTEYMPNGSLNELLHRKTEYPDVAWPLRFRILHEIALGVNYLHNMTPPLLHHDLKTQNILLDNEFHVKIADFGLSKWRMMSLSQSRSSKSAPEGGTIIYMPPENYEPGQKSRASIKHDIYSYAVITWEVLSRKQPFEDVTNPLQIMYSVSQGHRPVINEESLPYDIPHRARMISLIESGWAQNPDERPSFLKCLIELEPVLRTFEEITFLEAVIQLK
- procedure summary: RIPK2-XIAP binding competition PPI assay (TR-FRET)
- condition set: RIPK2/XIAP binding competition PPI assay; read-out: PPI IC50 bin
Entries and their measured IC50 follow.

Here's what some known entries look like.
COc1c(F)cc(-c2cnc3cc(OC[C@@H](C)O)c(S(=O)(=O)C(C)(C)C)cn23)cc1NS(C)(=O)=O < 1 nM
COCCOc1cc2ncc(-c3cc(F)c(N)nc3F)n2cc1S(=O)(=O)C(C)(C)C 2.5 to 20 nM
CC(C)(C)S(=O)(=O)c1cn2c(-c3cnc4ccnn4c3)cnc2cc1OCCO > 20 nM

Let's switch to this compound now.
Data request: Determine from records and report IC50 for COc1cc2ncc(-c3cc(F)c(OC)c(NS(=O)(=O)c4cnn(C)c4C)c3)n2cc1S(=O)(=O)C(C)(C)C
Data returned: 1 to 2.5 nM

* * *

Entries and their measured IC50 follow.
- target or system: binding of His-XIAP(BIR2)-avi fusion protein to GST-RIPK2 fusion protein (RIPK2/XIAP) (Homo sapiens)
- Construct: made in house; host or cells: baculovirus infected Sf9 cells
- procedure summary: RIPK2-XIAP binding competition PPI assay (TR-FRET)
- condition set: RIPK2/XIAP binding competition PPI assay; read-out: PPI IC50 bin

Here's what some known entries look like.
COc1cc2ncc(-c3cc(F)c(N)nc3F)n2cc1S(=O)(=O)c1ccnn1C > 20 nM
CC(C)(C)S(=O)(=O)c1cn2c(-c3cc(F)c(N)nc3F)cnc2cc1OCCN1CCOCC1 2.5 to 20 nM
C[C@H](O)COc1cc2ncc(-c3ccc(N)nc3F)n2cc1S(=O)(=O)C(C)(C)C 2.5 to 20 nM

Let's switch to this compound now.
Data request: Determine from records and report IC50 for COc1cc2ncc(-c3cc(F)c(OC)c4[nH]c(CCO)nc34)n2cc1S(=O)(=O)C(C)(C)C
Data returned: 1 to 2.5 nM

* * *

Entries and their measured IC50 follow.
- target or system: GST-RIPK2 fusion protein (human RIPK2, amino acids 1-310) (Homo sapiens, UniProt O43353)
- Construct: made in house; host or cells: baculovirus infected Sf9 cells
- procedure summary: RIPK2 binding competition assay (TR-FRET, Tracer 199 displacement)
- condition set: 10 nM Tracer 199, 1 nM GST-RIPK2, read-out: RIPK2 IC50

molecule	target or system	IC50
CN1CCN(CCOc2cc3ncc(-c4cc(F)c(N)nc4F)n3cc2S(=O)(=O)C(C)(C)C)CC1	GST-RIPK2 fusion protein (human RIPK2, amino acids 1-310) (Homo sapiens, UniProt O43353)	2.5 to 20 nM
C[C@@H](CO)COc1cn2ncc(-c3cc(Cl)c(N)nc3F)c2cc1S(=O)(=O)C(C)(C)C	GST-RIPK2 fusion protein (human RIPK2, amino acids 1-310) (Homo sapiens, UniProt O43353)	< 1 nM
CC(C)(C)C(C)(O)c1cn2c(-c3cc(F)c(N)nc3F)cnc2cc1OCCO (stereo not shown) [Example 189]	GST-RIPK2 fusion protein (human RIPK2, amino acids 1-310) (Homo sapiens, UniProt O43353)	> 20 nM
COc1cc2ncc(-c3cccc(NS(=O)(=O)C4CCNC4)c3)n2cc1S(=O)(=O)C(C)(C)C (stereo not shown)	GST-RIPK2 fusion protein (human RIPK2, amino acids 1-310) (Homo sapiens, UniProt O43353)	2.5 to 20 nM
COCCN1CCC(C)(S(=O)(=O)c2cn3c(-c4cc(F)c(N)nc4F)cnc3cc2OC)CC1	GST-RIPK2 fusion protein (human RIPK2, amino acids 1-310) (Homo sapiens, UniProt O43353)	2.5 to 20 nM
[2H]C([2H])([2H])Oc1c(F)cc(-c2cnc3cc(OC)c(S(=O)(=O)C(C)(C)C)cn23)cc1NS(=O)(=O)CC1COC1	GST-RIPK2 fusion protein (human RIPK2, amino acids 1-310) (Homo sapiens, UniProt O43353)	< 1 nM
CC(C)(C)C(C)(O)c1cn2c(-c3cc(F)c(N)nc3F)cnc2cc1OCCO (stereo not shown) [Example 193]	GST-RIPK2 fusion protein (human RIPK2, amino acids 1-310) (Homo sapiens, UniProt O43353)	2.5 to 20 nM
COc1cc2ncc(-c3cc(F)c(N)nc3F)n2cc1S(=O)(=O)C1(C)CCN(C(=O)OC(C)(C)C)CC1	GST-RIPK2 fusion protein (human RIPK2, amino acids 1-310) (Homo sapiens, UniProt O43353)	> 20 nM
CCCS(=O)(=O)Nc1cc(-c2cnc3cc(OC)c(C(=O)N(C)C(C)C)cn23)cc(F)c1OC	GST-RIPK2 fusion protein (human RIPK2, amino acids 1-310) (Homo sapiens, UniProt O43353)	> 20 nM
COc1cc2ncc(-c3cc(F)c(OC)c4[nH]ncc34)n2cc1S(=O)(=O)C(C)(C)C	GST-RIPK2 fusion protein (human RIPK2, amino acids 1-310) (Homo sapiens, UniProt O43353)	2.5 to 20 nM

Data request: Determine from records and report IC50 for C[C@@H](CO)COc1cc2ncc(-c3cc(F)c(N)nc3F)n2cc1S(=O)(=O)C(C)(C)C
Data returned: 1 to 2.5 nM

Data request: Determine from records and report IC50 for COc1c(F)cc(-c2cnc3cc(OC[C@H](C)CO)c(S(=O)(=O)C(C)(C)C)cn23)cc1NS(C)(=O)=O
Data returned: < 1 nM

Data request: Determine from records and report IC50 for COc1cc2ncc(-c3cccc(NS(=O)(=O)C4CNC4)c3)n2cc1S(=O)(=O)C(C)(C)C
Data returned: > 20 nM

Data request: Determine from records and report IC50 for COc1cc2ncc(-c3cc(F)c(OC)c(NS(=O)(=O)CC4COC4)c3)n2cc1S(=O)(=O)C(C)(C)C
Data returned: < 1 nM

Data request: Determine from records and report IC50 for CC1(C)CNc2ncc(-c3cnc4cc(OCCO)c(S(=O)(=O)C(C)(C)C)cn34)cc21
Data returned: > 20 nM
